Test Description: Pharmacokinetic study of CBZ in rat plasma
Assay type: in vivo, rat (Sprague Dawley)
Condition Description: both, Sprague Dawley, rat, plasma, oral, 10 mg/kg
Measured Parameter: concentration at 24 h (ng/mL)
Enter your answer as a number in ng/mL; do not include the unit.

Any idea what its concentration at 24 h is? The molecule is NC(=O)N1c2ccccc2C=Cc2ccccc21 [CBZ, carbamazepine]
65.2

* * *

Test Description: Pharmacokinetic study of CBZ in rat plasma
Format: in vivo, rat (Sprague Dawley)
Condition Description: both, Sprague Dawley, rat, plasma, po, 10 mg/kg
Measured Parameter: Cmax (ng/mL)
Enter your answer as a number in ng/mL; do not include the unit.

Any idea what its Cmax is? The compound is NC(=O)N1c2ccccc2C=Cc2ccccc21 [CBZ, carbamazepine]
4630
